B1: library; a variant is named by its letters at N, in order (parent)
chain: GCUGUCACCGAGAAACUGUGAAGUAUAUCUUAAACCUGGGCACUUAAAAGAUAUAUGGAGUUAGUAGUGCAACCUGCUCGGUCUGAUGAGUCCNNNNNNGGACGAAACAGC

Variants of: B1
Assay: normalized RNA/DNA level without ligand (relative to sTRSVctl = 100) (log10 (% of sTRSVctl)); HEK293T; ligand: cyclic di-GMP (c-di-GMP-II aptamer); higher = less ribozyme self-cleavage, higher mRNA level
Setup Conditions: reporter: mCherry (pCS4076), ligand present: no
Assay Readout: normalized RNA/DNA level without ligand (log10)
Please give only the number in your answer, with no unit.

These recorded examples may help you get a feel for the data.
# Change, Numeric Readout
data = [
    ("AAGUCG", 1.62),
    ("GCAGGU", 1.66),
    ("CGUAGA", 1.44),
    ("UGCAGA", 1.63),
    ("AAAUAU", 1.6),
]

Data point: CGCAGU ; normalized RNA/DNA level without ligand (log10) = 1.68

Data point: UAGGUG ; normalized RNA/DNA level without ligand (log10) = 1.58

Data point: CCGGAG ; normalized RNA/DNA level without ligand (log10) = 1.31

Data point: UGAAAG ; normalized RNA/DNA level without ligand (log10) = 1.77

Data point: CUUUGG ; normalized RNA/DNA level without ligand (log10) = 1.78

Data point: GGUAGA ; normalized RNA/DNA level without ligand (log10) = 1.34

Data point: UACUAG ; normalized RNA/DNA level without ligand (log10) = 1.7

Data point: CUGUUA ; normalized RNA/DNA level without ligand (log10) = 1.33

Data point: AAUCAG ; normalized RNA/DNA level without ligand (log10) = 1.61

Data point: AAAGAC ; normalized RNA/DNA level without ligand (log10) = 1.56

Data point: UAGUGU ; normalized RNA/DNA level without ligand (log10) = 1.62

Data point: AUCGAU ; normalized RNA/DNA level without ligand (log10) = 1.56

Data point: UUGAGG ; normalized RNA/DNA level without ligand (log10) = 1.79

Data point: AUCUCU ; normalized RNA/DNA level without ligand (log10) = 1.67

Recorded values, source the supplement of paper PMC6757056.
